Consider the following sequences; for each one, report its PBM 8-mer E-score.
Tested on: 2Sp-muMax20 (muMax20 with two 2,6-bis(methyl)pyridine Cys staples)
Assay: PBM 8-mer E-score (E-score (rank enrichment, -0.5 to 0.5)); higher = stronger preferential binding
Whole data set: some 33,000 sequences, median “E-score (rank enrichment, -0.5 to 0.5)” near -0.0043, cut for the highest 2% near 0.24. The list comes from a sample in which the highest values are over-represented; it also holds close analogues and randomly drawn sequences.
A bare number is all that is needed in reply.

Summary for this sequence, CATATTAC : PBM 8-mer E-score is 0.0498

Summary for this sequence, CAACCCCA : PBM 8-mer E-score is 0.264

Summary for this sequence, GTAATTTA : PBM 8-mer E-score is 0.0251

Summary for this sequence, AATATTAG : PBM 8-mer E-score is 0.243

Summary for this sequence, AGAATTTA : PBM 8-mer E-score is 0.284

Summary for this sequence, CTAATTGA : PBM 8-mer E-score is -0.0167

Summary for this sequence, AGAATTTC : PBM 8-mer E-score is -0.0921

Summary for this sequence, ACCCAGCA : PBM 8-mer E-score is -0.107

Summary for this sequence, ACGTATAT : PBM 8-mer E-score is 0.145

Summary for this sequence, GGCCTATA : PBM 8-mer E-score is -0.243

Summary for this sequence, CACTTGAA : PBM 8-mer E-score is 0.112

Summary for this sequence, ACCTTTGG : PBM 8-mer E-score is -0.277

Summary for this sequence, GTAATTGA : PBM 8-mer E-score is 0.0816

Summary for this sequence, AGACTGTC : PBM 8-mer E-score is -0.179
